These measurements were taken from patent US20090048291A1.

Test system: recombinant and non-replicative HIV virus coding for the firefly luciferase
Assay: Inhibitory effect on HIV infection to MAGI-CCR5 cells (HIV-luciferase assay)
Assay type: cell-based
Conditions: Human immunodeficiency virus 1, MAGI-CCR5, read-out: HIV-luciferase assay IC50
Please go through the items and note down their pIC50.
The value called pIC50 is obtained by taking minus log10 of the concentration in mol/L.

Ask: What does the data say about its pIC50? Entry: Cc1ccc(NC(=O)CC2CCN(CCN(c3ccccc3)c3ccccc3)CC2)cc1
Result: 5.67

Ask: What do you have for C[C@H](CN(c1ccccc1)S(=O)(=O)Cc1ccccc1)N1CCC(CC(=O)Nc2ccc(F)cc2F)CC1 ?
Result: 8.44

Ask: Field entry: O=C(CC1CCN(CCN(c2ccccc2)c2ccccc2)CC1)NCc1ccc(Cl)cc1
Result: 5.84

Ask: Next molecule up: O=C(CC1CCN(CCN(c2ccccc2)c2ccccc2)CC1)Nc1ccc(F)cc1
Result: 5.61
